These data points were gathered from patent US9216991B2.

- Target Entity: IRAK4 (Homo sapiens, UniProt Q9NWZ3)
- Construct: His (N); TEV cleavage site (N)
- Sequence (Q9NWZ3 whole entry): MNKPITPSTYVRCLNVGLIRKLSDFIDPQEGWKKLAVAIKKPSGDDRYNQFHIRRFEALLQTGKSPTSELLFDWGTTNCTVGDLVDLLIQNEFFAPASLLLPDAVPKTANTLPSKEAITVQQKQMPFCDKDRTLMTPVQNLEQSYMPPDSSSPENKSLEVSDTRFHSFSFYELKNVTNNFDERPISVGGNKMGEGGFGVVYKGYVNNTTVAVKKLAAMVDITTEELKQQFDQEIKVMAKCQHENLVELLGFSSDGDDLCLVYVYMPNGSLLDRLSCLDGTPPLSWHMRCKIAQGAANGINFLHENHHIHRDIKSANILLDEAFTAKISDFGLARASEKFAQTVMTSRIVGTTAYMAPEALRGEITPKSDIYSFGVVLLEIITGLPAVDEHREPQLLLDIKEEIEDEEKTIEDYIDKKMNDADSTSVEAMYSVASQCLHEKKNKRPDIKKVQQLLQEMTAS
- Test Protocol: IRAK4 Enzymatic Assay
- Run Conditions: His-TEV-IRAK4 20 ng/well, ATP 2 μM, STK1-biotin peptide 300 nM, 3 hours at 30° C., FlashPlate radioactivity
pIC50: −log10 of the molar value. Structures can show the parent of a compound that is named as a salt.
Measured pIC50, listed per entry.

# Compound, pIC50
records = [
    ("Cn1cc(-c2cccc(-c3ncc(-c4cnn(C5CCCN(S(C)(=O)=O)C5)c4)cn3)c2)cn1 (stereo in doubt) [Example 272]", "> 7.00"),
    ("FCC(CF)n1cc(-c2cccc(-c3ncc(-c4cnn(C5CCNCC5)c4)cn3)c2)cn1 [Example 16, hydrochloride]", "6.00 to 7.00"),
    ("Cn1cc(-c2ccc(F)c(-c3ncc(-c4cnn([C@H]5CC[C@H](O)CC5)c4)cn3)c2)cn1 [Example 292]", "6.00 to 7.00"),
    ("CN(C)C(=O)C1CC(n2cc(-c3cnc(-c4cccc(-c5cnn(C)c5)c4)nc3)cn2)C1 (stereo not shown) [Example 158]", "6.00 to 7.00"),
]

====

Structures can show the parent of a compound that is named as a salt.
Measured melting point, listed per entry.

# Compound, melting point
measured = [
    ("Cn1cc(-c2cccc(-c3ncc(-c4cnn([C@H]5CC[C@]6(CO)COC[C@]6(O)C5)c4)cn3)c2)cn1 (single isomer, unassigned)", "190.1 to 201.7 °C"),
    ("Cn1cc(-c2cccc(-c3ncc(-c4cnn([C@H]5CCCNC5)c4)cn3)c2)cn1", "175.8 to 180.6 °C"),
    ("Cn1cc(-c2cccc(-c3ncc(-c4cnn(C5CCS(=O)(=O)C5)c4)cn3)c2)cn1 (stereo not drawn)", "247 to 250 °C"),
    ("Cn1cc(-c2cccc(-c3ncc(-c4cnn(CCO)c4)cn3)c2)cn1", "234 to 236 °C"),
    ("Cn1cc(-c2cccc(-c3ncc(-c4cnn(CC(=O)N5CC(O)C5)c4)cn3)c2)cn1", "177 to 181 °C"),
    ("CN1CC2CC1CN2C(=O)[C@H]1CC[C@H](n2cc(-c3cnc(-c4cccc(-c5cnn(C)c5)c4)nc3)cn2)CC1 (stereo partly drawn) (as salt: hydrobromid) [Example 278, hydrobromide]", "50.3 to 55 °C"),
    ("Cn1cc(-c2cccc(-c3ncc(-c4cnn(CC(=O)N5CCC(O)C5)c4)cn3)c2)cn1 (stereo not drawn)", "237 to 238 °C"),
    ("Cn1cc(-c2cccc(-c3ncc(-c4cnn([C@@H]5CCC[C@@H](O)C5)c4)cn3)c2)cn1 (relative stereo)", "207.5 to 212 °C"),
    ("Cn1cc(-c2cccc(-c3ncc(-c4cnn(CC(=O)N5CCCC(O)C5)c4)cn3)c2)cn1 (stereo not drawn)", "198 to 200 °C"),
    ("Cn1cc(-c2cccc(-c3ncc(-c4cnn([C@H]5CC[C@H](OCCO)CC5)c4)cn3)c2)cn1", "218.7 to 223.3 °C"),
    ("Cn1cc(-c2cccc(-c3ncc(-c4cnn([C@H]5CC[C@@]6(CC5)CNC(=O)C6)c4)cn3)c2)cn1", "255 to 258.7 °C"),
    ("Cn1cc(-c2cccc(-c3ncc(-c4cnn([C@H]5CC[C@]6(CC5)CNC(=O)C6)c4)cn3)c2)cn1", "262 to 265.8 °C"),
    ("Cn1cc(-c2cccc(-c3ncc(-c4cnn([C@@H]5CC[C@@]6(CO)COC[C@@]6(O)C5)c4)cn3)c2)cn1 (single isomer, unassigned)", "191.4 to 199.7 °C"),
    ("Cn1cc(-c2cnc(-c3cccc(-c4cnn(C)c4)c3)nc2)cn1", "199 to 200 °C"),
    ("Cn1cc(-c2cccc(-c3ncc(-c4cnn(C5CCCC(S(C)(=N)=O)C5)c4)cn3)c2)cn1 (stereo not drawn)", "172 to 179.2 °C"),
]
